# EXPERIMENTAL SYSTEM: Upc2 (UniProt Q12151)
# Sequence: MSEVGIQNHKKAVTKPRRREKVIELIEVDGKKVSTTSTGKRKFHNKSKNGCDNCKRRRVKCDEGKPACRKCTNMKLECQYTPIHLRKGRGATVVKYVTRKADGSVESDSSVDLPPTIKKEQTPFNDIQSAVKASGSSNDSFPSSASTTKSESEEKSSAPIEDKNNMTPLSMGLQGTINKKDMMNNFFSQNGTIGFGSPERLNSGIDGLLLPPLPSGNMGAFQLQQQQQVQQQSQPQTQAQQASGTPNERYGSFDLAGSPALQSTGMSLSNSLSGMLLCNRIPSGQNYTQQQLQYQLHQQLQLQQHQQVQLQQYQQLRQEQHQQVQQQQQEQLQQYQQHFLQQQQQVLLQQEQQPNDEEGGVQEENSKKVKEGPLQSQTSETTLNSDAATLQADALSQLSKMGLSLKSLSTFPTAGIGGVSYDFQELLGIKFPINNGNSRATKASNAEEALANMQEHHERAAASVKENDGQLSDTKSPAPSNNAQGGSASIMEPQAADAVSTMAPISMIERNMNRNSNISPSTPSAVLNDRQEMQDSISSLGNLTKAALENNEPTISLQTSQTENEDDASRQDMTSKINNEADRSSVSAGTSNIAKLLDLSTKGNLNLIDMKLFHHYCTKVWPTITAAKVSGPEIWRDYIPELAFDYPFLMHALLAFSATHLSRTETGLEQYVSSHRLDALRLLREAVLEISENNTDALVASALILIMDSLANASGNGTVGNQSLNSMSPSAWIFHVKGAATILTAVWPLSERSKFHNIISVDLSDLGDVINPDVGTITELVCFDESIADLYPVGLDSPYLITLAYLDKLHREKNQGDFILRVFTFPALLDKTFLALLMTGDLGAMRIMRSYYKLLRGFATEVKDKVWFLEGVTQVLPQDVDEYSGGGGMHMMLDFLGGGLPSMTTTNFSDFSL
# PROTOCOL DETAILS: PBM E-score (8-mer binding enrichment) (E-score (-0.5 to 0.5)); higher = stronger / more preferred TF binding
# CONDITION NOTES: protein concentration: 200 nM; construct: GST-full length
In all, about 33,000 sequences were measured (“E-score (-0.5 to 0.5)”: median about -0.043, highest 2% from about 0.37 on). The entries come from a sample that favours the highest values as a whole.
PROPERTY NAME: PBM E-score
Enter the number alone.

Before answering, review these 5 worked examples.
AGGTATAA
0.198
ACGTATAA
0.437
TCAGACAA
-0.17
AGTTTGGA
-0.014
ACTGTGCG
0.134

Fill in the blank: the reported PBM E-score of TGAACGAA is ____.
0.458

Fill in the blank: the reported PBM E-score of CGGTATAA is ____.
0.267

Fill in the blank: the reported PBM E-score of CTAACGAA is ____.
0.287

Fill in the blank: the reported PBM E-score of GCAACTGA is ____.
0.0086

Fill in the blank: the reported PBM E-score of ACCGGTTA is ____.
0.118

###

# EXPERIMENTAL SYSTEM: Upc2 (UniProt Q12151)
# Sequence: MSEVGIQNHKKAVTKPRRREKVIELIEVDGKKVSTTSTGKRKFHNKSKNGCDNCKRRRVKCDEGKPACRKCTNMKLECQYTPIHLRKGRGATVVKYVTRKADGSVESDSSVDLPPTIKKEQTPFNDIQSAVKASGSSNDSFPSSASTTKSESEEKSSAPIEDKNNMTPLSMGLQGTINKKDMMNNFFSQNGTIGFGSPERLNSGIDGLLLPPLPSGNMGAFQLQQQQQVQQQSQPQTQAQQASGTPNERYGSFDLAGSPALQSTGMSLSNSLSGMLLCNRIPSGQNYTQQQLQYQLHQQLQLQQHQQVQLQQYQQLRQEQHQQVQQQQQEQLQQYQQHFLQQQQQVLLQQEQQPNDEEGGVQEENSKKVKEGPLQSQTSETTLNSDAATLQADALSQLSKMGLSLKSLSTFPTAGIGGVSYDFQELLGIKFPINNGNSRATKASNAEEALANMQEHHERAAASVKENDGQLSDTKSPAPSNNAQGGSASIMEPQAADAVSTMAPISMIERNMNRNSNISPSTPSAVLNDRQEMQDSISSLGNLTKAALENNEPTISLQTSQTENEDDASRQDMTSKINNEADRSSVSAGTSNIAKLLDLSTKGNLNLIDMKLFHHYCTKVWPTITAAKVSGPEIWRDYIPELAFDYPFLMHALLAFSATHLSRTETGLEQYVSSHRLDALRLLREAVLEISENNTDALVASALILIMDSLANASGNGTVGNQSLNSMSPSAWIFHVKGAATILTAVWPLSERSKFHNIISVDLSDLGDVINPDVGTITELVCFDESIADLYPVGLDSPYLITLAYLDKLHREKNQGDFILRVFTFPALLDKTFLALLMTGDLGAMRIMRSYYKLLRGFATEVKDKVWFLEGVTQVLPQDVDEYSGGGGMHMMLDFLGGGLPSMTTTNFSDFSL
# PROTOCOL DETAILS: PBM E-score (8-mer binding enrichment) (E-score (-0.5 to 0.5)); higher = stronger / more preferred TF binding
# CONDITION NOTES: protein concentration: 200 nM; construct: GST-full length
The full ranking holds about 33,000 sequences; the median of “E-score (-0.5 to 0.5)” is about -0.043, and the highest 2% start at about 0.37. This is one part of a sample in which the highest values are shown more often than they occur.
Respond with Criterion met for PBM E-score values of 0.2 and above, Criterion not met for values below.

CTGGGTAA
Criterion not met
CTTTCGGA
Criterion not met

# check: PBM E-score of AGTCTTTA is greater than or equal to 0.2
Criterion not met

# check: PBM E-score of CTGTACAA is greater than or equal to 0.2
Criterion not met

# check: PBM E-score of GTATATAA is greater than or equal to 0.2
Criterion met

# check: PBM E-score of GTTTCGGA is greater than or equal to 0.2
Criterion met

###

# EXPERIMENTAL SYSTEM: Upc2 (UniProt Q12151)
# Sequence: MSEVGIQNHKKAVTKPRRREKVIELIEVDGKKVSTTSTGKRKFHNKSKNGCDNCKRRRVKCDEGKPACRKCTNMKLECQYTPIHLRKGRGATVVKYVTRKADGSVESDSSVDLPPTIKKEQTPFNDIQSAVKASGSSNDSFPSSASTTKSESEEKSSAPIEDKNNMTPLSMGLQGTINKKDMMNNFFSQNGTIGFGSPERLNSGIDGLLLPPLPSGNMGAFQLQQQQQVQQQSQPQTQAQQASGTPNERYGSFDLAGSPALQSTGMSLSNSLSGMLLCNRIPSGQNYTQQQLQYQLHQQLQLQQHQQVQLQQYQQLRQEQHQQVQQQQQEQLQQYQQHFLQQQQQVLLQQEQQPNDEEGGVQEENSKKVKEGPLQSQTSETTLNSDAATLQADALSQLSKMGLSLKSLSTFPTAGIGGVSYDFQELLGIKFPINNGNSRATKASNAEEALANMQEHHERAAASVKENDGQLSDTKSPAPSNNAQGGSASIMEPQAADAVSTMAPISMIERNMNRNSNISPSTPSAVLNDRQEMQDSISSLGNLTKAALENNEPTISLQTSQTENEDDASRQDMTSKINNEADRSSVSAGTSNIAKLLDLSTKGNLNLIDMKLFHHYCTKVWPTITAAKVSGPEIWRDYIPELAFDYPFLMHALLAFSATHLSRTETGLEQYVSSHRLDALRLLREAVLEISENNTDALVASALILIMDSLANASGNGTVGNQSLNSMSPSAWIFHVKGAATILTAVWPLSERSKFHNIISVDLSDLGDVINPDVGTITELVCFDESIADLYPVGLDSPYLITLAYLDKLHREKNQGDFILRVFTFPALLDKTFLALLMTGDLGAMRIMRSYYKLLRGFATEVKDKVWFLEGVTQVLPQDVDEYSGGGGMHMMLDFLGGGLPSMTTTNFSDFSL
# PROTOCOL DETAILS: PBM E-score (8-mer binding enrichment) (E-score (-0.5 to 0.5)); higher = stronger / more preferred TF binding
# CONDITION NOTES: protein concentration: 200 nM; construct: GST-full length
The full ranking holds about 33,000 sequences; the median of “E-score (-0.5 to 0.5)” is about -0.043, and the highest 2% start at about 0.37. The sample holds the highest values, similar sequences and a random draw of the others, so the mix is not that of the screen.
This listing pairs sequences with measured PBM E-score.
Enter the number alone.

CACGACCG
0.00924

Fill in the blank: the reported PBM E-score of GGAACTGA is ____.
-0.0729

Fill in the blank: the reported PBM E-score of AACTGTGT is ____.
-0.137

Fill in the blank: the reported PBM E-score of AGTCGTTC is ____.
0.41

Fill in the blank: the reported PBM E-score of AGTTGCGA is ____.
0.0264

Fill in the blank: the reported PBM E-score of ATTCGATA is ____.
0.0034
